tested on: Rabbit RBC; format: cell-based
Where a SMILES comes first, the peptide text is derived from it.
quantity: Rabbit RBC (% lysis) 200 μM
Form field: result (number plus unit)

Incoming: # return recorded Rabbit RBC (% lysis) 200 μM for input C[C@H](NC(=O)[C@H](C)NC(=O)[C@H](CCCCN)NC(=O)[C@H](CCCCN)NC(=O)[C@@H](N)CCCCN)C(=O)N[C@@H](C)C(=O)N[C@@H](Cc1ccccc1)C(=O)N[C@@H](C)C(=O)N[C@@H](C)C(=O)N[C@@H](Cc1c[nH]c2ccccc12)C(=O)N[C@@H](C)C(=O)N[C@@H](C)C(=O)N[C@@H](Cc1ccccc1)C(=O)N[C@@H](C)C(=O)N[C@@H](CCCCN)C(=O)N[C@@H](CCCCN)C(=O)N[C@@H](CCCCN)C(N)=O [Peptide F17, KKKAAAFAAWAAFAKKK-NH2] (H-KKKAAAFAAWAAFAKKK-NH2; N-terminus assumed)
Outgoing: 2 % lysis
